Just for reference, PubChem BioAssay is where these values come from.

- procedureDetails: inhibitors of Chlamydomonas gravitaxis, primary screen, whole organism, Chlamydomonas reinhardtii, WT vs cilia-less mutant, absorbance, 96-well (AID 463189);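 note: 0% = wild type cc124 cells in DMSO and 100% = ciliumless bld1 mutant cells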
- cond: OD600 absorbance, 2 days, at 10 µM, stronger effect = higher value
endpoint: inhibition (%)
The figure you give is taken to be in %; do not add the unit.

>>> obsvalue("COC(=O)CC1SC(=O)NC1=O (centres undefined)")
6.27
>>> obsvalue("Cc1cccn2c(=O)c3cc(C#N)c(=N)n(Cc4ccncc4)c3nc12")
-9.33
>>> obsvalue("Cc1cc(-c2ccccc2)nnc1NCCN1CCOCC1")
15.7
>>> obsvalue("Cc1cccc(C)c1OCC(O)CNS(=O)(=O)c1ccccc1C(=O)N1CCOCC1 (centres undefined)")
-5.56
>>> obsvalue("N#CC1(c2ccccc2)CCC(=NO)CC1 (centres undefined)")
-5.88

The reported inhibition of the compound CCCCOc1ccc(C)cc1CN(CCO)CCO was -2.14

The reported inhibition of the compound Nc1nc(F)nc2c1ncn2[C@@H]1O[C@H](CO)[C@@H](O)[C@@H]1O was -8.17

The reported inhibition of the compound COC(=O)c1ccc(Cn2cnc3c(sc4nc(N5CCOCC5)c5c(c43)CCCC5)c2=O)o1 was 6.85

###

// reported z-score per item
- procedureDetails: DUSP6 inhibitors restoring Erk phosphorylation by chemical complementation, primary imaging in DUSP6-transfected HeLa (AID 609)
- cond: HeLa MKP-3 transfected, phospho-Erk imaging KS statistic; measured here: nuclear pErk red intensity z-score; at 10 µM; stronger effect = higher value; cells stimulated with TPA for 15 min
Form field (numeric): enter value without unit.

>>> obsvalue("C[C@]12CC[C@@H]3c4ccc(O)cc4C(=O)C[C@H]3[C@@H]1CC[C@@H]2O")
1.93

The reported z-score of the compound O=C(O)c1cnn2c(C(F)(F)F)cc(-c3ccco3)nc12 was -0.464

The reported z-score of the compound CSCCC(CO)NC(=O)OCc1ccccc1 (stereo unspecified) was -0.962

The reported z-score of the compound COc1ccc(C2(CN(C(C)=O)C(C)=O)CCCC2)cc1OC was -1.44

The reported z-score of the compound CSc1ccc2c(c1)N(CCC1CCCCN1C)c1ccccc1S2 (stereo unspecified) was 1.46

The reported z-score of the compound C1CNCCNCCNCCN1 was 0.0503

###

- systemName: Voltage-gated potassium channel subunit beta-2 (Rattus norvegicus) (UniProt P62483)
- Sequence (P62483 whole entry, looked up): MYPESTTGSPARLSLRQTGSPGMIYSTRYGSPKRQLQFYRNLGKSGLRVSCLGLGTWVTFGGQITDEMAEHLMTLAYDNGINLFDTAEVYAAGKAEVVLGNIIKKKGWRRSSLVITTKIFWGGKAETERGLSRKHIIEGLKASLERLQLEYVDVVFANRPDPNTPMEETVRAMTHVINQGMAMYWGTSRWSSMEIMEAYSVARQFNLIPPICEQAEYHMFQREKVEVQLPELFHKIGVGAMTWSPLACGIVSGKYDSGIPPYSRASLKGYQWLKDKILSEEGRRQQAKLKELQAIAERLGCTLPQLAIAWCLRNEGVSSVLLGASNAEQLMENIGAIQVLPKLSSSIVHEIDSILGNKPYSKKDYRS
- procedureDetails: KvBeta positive modulators, primary screen, biochemical, NADPH fluorescence (AID 623);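 note: fluorescence intensity change per second fitted from 20 to 320 s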
- cond: Recombinant KvBeta, NADPH fluorescence decrease slope, 10 min; at 10 µM; stronger effect = lower value
// reported NADPH fluorescence slope per item
Form field (numeric): enter value without unit.

Before answering, review these 3 worked examples.
>>> obsvalue("CCCOc1ccc(/C(O)=C2/C(=O)C(=O)N(CCN(C)C)C2c2ccncc2)cc1 (configuration not stated)")
"-6.3e-05"
>>> obsvalue("Cc1ccc(N2C(=O)CC(N(O)C3CC(=O)N(c4ccc(C)cc4)C3=O)C2=O)cc1 (configuration not stated)")
-0.000136
>>> obsvalue("O=C(NCCN1CCCCC1)c1ccc(=O)oc1")
"-5.1e-05"

The reported NADPH fluorescence slope of the compound O=C(NCCO)c1cccc2c1C(=O)c1ccccc1-2 was -5.1e-05

###

// reported inhibition of aggregation per item
- procedureDetails: inhibitors of mutant huntingtin aggregation, primary screen, imaging, exon1htt(103Q)mCFP cells, high-content imaging (AID 483);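 note: compound exposure lasted 3 days before fixation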
- cond: exon1htt(103Q)mCFP cell line, aggregate imaging, at 2 µM; stronger effect = higher value
The figure you give is taken to be in %; do not add the unit.

>>> obsvalue("CNCCC=C1c2ccccc2CCc2ccccc21")
8
>>> obsvalue("Cc1ccc(C2/C(=C(/O)c3cnn(-c4ccccc4)c3C)C(=O)C(=O)N2CCN2CCOCC2)o1 (configuration not stated)")
10.2
>>> obsvalue("COc1cccc(-c2nnc3sc(C4CCCCC4)nn23)c1")
42.2

The reported inhibition of aggregation of the compound Cc1nc2sccn2c(=O)c1CCN1CCC(=C(c2ccc(F)cc2)c2ccc(F)cc2)CC1 was 4

The reported inhibition of aggregation of the compound COCc1cc(=O)[nH]c(Nc2nc3ccccc3o2)n1 was 5.2

The reported inhibition of aggregation of the compound CC(C(=O)O)c1ccc(-c2ccccc2)c(F)c1 (configuration not stated) was -18.5

The reported inhibition of aggregation of the compound CCOC(=O)Cc1nnc(Nc2cccc(O)c2)c2ccccc12 was -13.1

The reported inhibition of aggregation of the compound COC(=O)CC1SC(=O)NC1=O (configuration not stated) was 26.4

The reported inhibition of aggregation of the compound O=C(O)CCN(CCC(=O)O)c1nnc(SCc2ccccc2)s1 was -9.5

The reported inhibition of aggregation of the compound COC(=O)CNC(=O)c1c(C)cc(=O)oc1C was 1.6

The reported inhibition of aggregation of the compound COC(=O)CSc1nc(C)c(C(C)=O)cc1C#N was 5.5

The reported inhibition of aggregation of the compound COc1ccc(NS(=O)(=O)c2ccc(N)cc2)nn1 was -19.4

###

- procedureDetails: inhibitors of TNFa-induced NFkB p65 translocation, primary screen, imaging, HUVEC, MLSMR starter and 10KST1 sets (AID 438);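 note: compound added about 3h40 before a 20 min TNFalpha stimulation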
- cond: HUVEC TNFa-induced p65 nuclear translocation; measured here: nuclei count (cytotoxicity indicator), at 2.08 µM
Give True when the value for cell count is at least 500. Give False when it is less.

>>> label("Fc1ccc2[nH]c3c(N4CCN(c5ccccc5)CC4)ncnc3c2c1")
"False"
>>> label("N#Cc1c(N)nc(SCC(=O)NCCc2ccccc2)c(C#N)c1-c1cccs1")
"False"
>>> label("CCn1cc(C(=O)NCc2ccccn2)c(=O)c2cc(F)c(N3CCN(C)CC3)cc21")
"False"
>>> label("N#CC1=C(N)N2C(=C(C#N)C1c1ccccc1)Sc1ccccc12 (stereo unspecified)")
"True"
>>> label("c1ccc(CSc2nnc(SCc3ccccn3)s2)nc1")
"False"
>>> label("O=C(c1ccco1)N1CCN(c2ncnc3c2[nH]c2ccccc23)CC1")
"False"
>>> label("CCCSc1nnc2n(-c3ccccc3OC)c(=O)c3c4c(sc3n12)CCC4")
"True"
>>> label("Nc1nc(F)nc2c1ncn2[C@@H]1O[C@H](CO)[C@@H](O)[C@@H]1O")
"True"

Query: In plain terms: is recorded cell count at least 500 for COc1ccc(NC(=O)C2CSC3c4ccccc4C(=O)N23)cc1 (stereo unspecified) ?
Response: False

Query: In plain terms: is recorded cell count at least 500 for COC(=O)c1cc(Br)c(=O)n(-c2nccs2)c1 ?
Response: True

###

- procedureDetails: inhibitors of TNFa-induced NFkB p65 translocation, primary screen, imaging, HUVEC, MLSMR starter and 10KST1 sets (AID 438);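 note: compound added about 3h40 before a 20 min TNFalpha stimulation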
- cond: HUVEC TNFa-induced p65 nuclear translocation; measured here: nuclei count (cytotoxicity indicator), at 2.08 µM
Dear colleague, classification is by cell count, with ranges listed here: bucket 1 (below 500), bucket 2 (500 to below 600), bucket 3 (600 or more)

Answered cases to consult:
>>> label("COc1ccc(/C=C/C(=O)Nc2ccccc2C(=O)O)cc1OC")
"bucket 1"
>>> label("CC(=O)C1=C(O)C(=O)N(c2cccc(C(=O)O)c2)C1c1ccccc1F (stereo not given)")
"bucket 2"
>>> label("CCCC(=O)N(Cc1cc2ccccc2[nH]c1=O)c1ccccc1OC")
"bucket 1"
>>> label("Oc1c(C=Nc2cccnc2)sc2ccccc12")
"bucket 3"
>>> label("Cc1c(N=Cc2c(O)n(C3CCCCC3)c(=O)[nH]c2=O)c(=O)n(-c2ccccc2)n1C")
"bucket 3"

Query: Where would Nc1ncnc2nc(SCc3ccccc3)[nH]c12 land among the classes by reported cell count?
Response: bucket 1

Query: Where would Cc1cc(=O)oc(C)c1C(=O)N[C@@H]1CCCCNC1=O land among the classes by reported cell count?
Response: bucket 1

Query: Where would CCOC(=O)CSc1nc(N)c2c3c(sc2n1)CCCC3 land among the classes by reported cell count?
Response: bucket 3

Query: Where would C=CCNc1nc(-c2ccc(O)c(C(N)=O)c2)cs1 land among the classes by reported cell count?
Response: bucket 3

Query: Where would COc1ccc(C2=CC(c3cccc(OC)c3)n3nnnc3N2)cc1 (stereo not given) land among the classes by reported cell count?
Response: bucket 2

Query: Where would CC1(C)O[C@@H]2C[C@H]3[C@@H]4C[C@H](F)C5=CC(=O)CC[C@]5(C)[C@H]4[C@@H](O)C[C@]3(C)[C@]2(C(=O)CO)O1 land among the classes by reported cell count?
Response: bucket 2

Query: Where would COc1cc(-c2cc(C(F)(F)F)n3ncc(C(=O)O)c3n2)cc(OC)c1OC land among the classes by reported cell count?
Response: bucket 1

Query: Where would COc1ccccc1C(=O)N1CCCC1(C#N)c1ccccc1 (stereo not given) land among the classes by reported cell count?
Response: bucket 3

Query: Where would COC(=O)C1=C(C)N=C2SC(C)C(=O)N2C1/C=C/c1ccccc1OC (stereo not given) land among the classes by reported cell count?
Response: bucket 1

Query: Where would COc1ccc(Nc2nc(Nc3ccc(OC)cc3)nc(-n3[nH]c(=O)c(C)c3C)n2)cc1 land among the classes by reported cell count?
Response: bucket 3
